- PROTOCOL_DETAILS: Metabolic stability in rat liver microsomes assessed as half life at 1 uM measured upto 90 mins by LC-MS/MS analysis
- Assay type: ADME, Microsome
OBSERVATION_TYPE: half-life at 1 µM (h)

Consider the following illustrative entries.
O=C1COc2cc(F)c(C(=O)Nc3cccc(-c4nncn4C4CC4)n3)cc2N1    4.08
O=C(Nc1cccc(-c2nncn2CC2CC2)c1)c1cc2c(cc1F)OCc1cncn1-2    0.167
O=C1CCc2cc(F)c(C(=O)Nc3cccc(-c4nncn4C4CC4)n3)cc2N1    4.07
CC(C)n1cnnc1-c1cccc(NC(=O)c2cc3c(cc2F)OCc2cncn2-3)n1    0.187
O=C(Nc1cccc(-c2nncn2C2CC2)n1)c1cc2c(cc1F)OCc1cncn1-2    0.228
O=C1CCCc2cc(F)c(C(=O)Nc3cccc(-c4nncn4C4CC4)n3)cc2N1    8.87
O=C1COc2cc(F)c(C(=O)Nc3cccc(-c4nncn4C4CCCC4)n3)cc2N1    0.585
CC(C)n1cnnc1-c1cccc(NC(=O)c2cc3c(cc2F)CCC(=O)N3)n1    3.12

[1] CC(C)n1cnnc1-c1cccc(NC(=O)c2cc3c(cc2F)CCCC(=O)N3)n1
[2] CC(C)n1cnnc1-c1cccc(NC(=O)c2cc3c(cc2F)C(C)(C)CC(=O)N3C)n1
[3] CC(CO)n1cnnc1-c1cccc(NC(=O)c2cc3c(cc2F)CCCC(=O)N3C)n1 (stereo not given)
[4] O=C(Nc1cccc(-c2nncn2C2CCCC2)n1)c1cc2c(cc1F)OCc1cncn1-2
[5] CC(C)n1cnnc1-c1cccc(NC(=O)c2cc3c(cc2F)OCc2cncn2-3)c1
q: Put the entries in order of half-life at 1 µM, starting with the largest number. Provide your answer as the labels ordered per the instruction.
a: 1, 3, 2, 4, 5

[I] CC(C)n1cnnc1-c1cccc(NC(=O)c2cc3c(cc2F)CCCC(=O)N3)c1
[II] CC(CO)n1cnnc1-c1cccc(NC(=O)c2cc3c(cc2F)CCCC(=O)N3)n1 (stereo not given)
q: For the two items I and II , which reports the higher half-life at 1 µM value? Refer to your chosen entry by its label in the reply.
a: I
